assay: in vitro; conditions: PAMPA, pH 7.4
Reported Papp values for a set of compounds

{"columns": ["COMPOUND", "UNIT", "Papp"],
 "data": [
  ["CCCCCCS(=O)(=O)c1cc(Cl)c(C(=O)CCN(C)C)cc1Cl", "×10⁻⁶ cm/s", 90],
  ["CCCCCCOc1ccc2c(c1)OCC(CN(C)C)C2=O (centres undefined)", "×10⁻⁶ cm/s", 700],
  ["CCCCCCOc1ccc(C(=O)CCN(C)C)c(N(C)C)c1", "×10⁻⁶ cm/s", 170],
  ["CCCCCCSc1cc(Cl)c(C(=O)CCN(C)C)cc1Cl", "×10⁻⁶ cm/s", 330],
  ["CCCCCCOc1ccc(C(=O)CCN(C)C)cc1C(F)(F)F", "×10⁻⁶ cm/s", 930],
  ["CCCCCCOc1ccc(C(=O)CCN2CCOCC2)c(Cl)c1Cl", "×10⁻⁶ cm/s", 930],
  ["CCCCCCSc1cc(Cl)c(C(=O)CCN2CC2C)c(Cl)c1 (centres undefined)", "×10⁻⁶ cm/s", 190],
  ["CCCCCCS(=O)(=O)c1ccc(C(=O)CCN2CC2C)c(Cl)c1Cl (centres undefined)", "×10⁻⁶ cm/s", 440],
  ["CCCCCCS(=O)(=O)c1cc(Cl)c(C(=O)CCN2CCN(C(C)=O)CC2)cc1Cl", "×10⁻⁶ cm/s", 670]
]}
